systemUnderTest: PRKX (human) (UniProt P51817)
Sequence (P51817 whole entry, looked up): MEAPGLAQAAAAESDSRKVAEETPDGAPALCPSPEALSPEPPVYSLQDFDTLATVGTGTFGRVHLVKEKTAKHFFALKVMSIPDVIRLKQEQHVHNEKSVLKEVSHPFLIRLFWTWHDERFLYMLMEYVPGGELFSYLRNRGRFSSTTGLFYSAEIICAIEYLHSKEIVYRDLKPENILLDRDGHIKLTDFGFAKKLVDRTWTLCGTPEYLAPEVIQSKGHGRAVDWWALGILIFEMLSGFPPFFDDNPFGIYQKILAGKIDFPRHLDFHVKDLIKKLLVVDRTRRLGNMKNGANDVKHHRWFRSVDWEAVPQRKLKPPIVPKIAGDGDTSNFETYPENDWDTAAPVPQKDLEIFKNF
procedureDetails: split-luciferase competition binding
conditionContext: compound 10.0 µM
Decision: inhibition >= 5% yields rule met, all other cases yield rule not met.

| smiles | group |
| --- | --- |
| CCN(CC)CCNC(=O)c1c(C)[nH]c(/C=C2\C(=O)Nc3ccc(F)cc32)c1C | rule met |
| COc1cc2ncnc(Nc3ccc(F)c(Cl)c3)c2cc1OCCCN1CCOCC1 | rule met |
| O=S(=O)(c1cccc2cnccc12)N1CCCNCC1 | rule met |
| O=c1cc(N2CCOCC2)nc2c3ccccc3ccn12 | rule not met |
| Cc1ccccc1C(=O)c1ccc(Nc2ccc(Br)cc2N)cc1Cl | rule not met |
| CC(=O)c1c(O)c(C)c(O)c(Cc2c(O)c3c(c(C(=O)/C=C/c4ccccc4)c2O)OC(C)(C)C=C3)c1O | rule met |
| Cn1cc(C2=C(c3ccc(Cl)cc3Cl)C(=O)NC2=O)c2ccccc21 | rule not met |
| Fc1ccc(Cl)cc1-c1nc(Nc2ccncc2)c2nccnc2n1 | rule met |
| Cc1ccc(NC(=O)c2cccc(N(C)C)c2)cc1NC(=O)c1ccc(O)cc1 | rule not met |

Read the next record carefully.
Asked: Identify whether the reported inhibition of the following molecule is 5% or greater: CC[C@@H](CO)Nc1nc(NCc2ccccc2)c2ncn(C(C)C)c2n1
Given back: rule not met

* * *

systemUnderTest: PRKCG (human) (UniProt P05129)
procedureDetails: split-luciferase competition binding
conditionContext: compound 10.0 µM
valueKind: inhibition (%)
Quick reminder: number only, in %, skip the unit.

Worked examples follow.
| molecule | quantityUnit | inhibition |
| --- | --- | --- |
| O=C(Nc1cc(C(F)(F)F)cc(C(F)(F)F)c1)c1cc(Cl)ccc1O | % | 6 |
| CC(=O)c1c(O)c(C)c(O)c(Cc2c(O)c3c(c(C(=O)/C=C/c4ccccc4)c2O)OC(C)(C)C=C3)c1O | % | 26 |
| CC1=C(O)C(=O)[C@@H]2OC2C1=O (some centres undefined) | % | 0 |
| O=C1Nc2ccc(I)cc2/C1=C/c1cc(Br)c(O)c(Br)c1 | % | 5 |
| CS(=O)c1ccc(-c2nc(-c3ccc(F)cc3)c(-c3ccncc3)[nH]2)cc1 (centres undefined) | % | 0 |
| Cc1cc(I)ccc1Nc1c(C(=O)NOCC2CC2)cc(F)c(F)c1F | % | 12 |
| NC(=O)c1sc(-c2ccsc2)cc1N | % | 0 |
| CC(C)(C)n1nc(-c2cccc3ccccc23)c2c(N)ncnc21 | % | 5 |

Asked: Name the recorded inhibition of the item O=C1NC(=O)c2c1c1c3ccccc3[nH]c1c1[nH]c3ccccc3c21 in your answer.
Given back: 7

Asked: Identify inhibition associated with the molecule CN1CC[C@H](c2c(O)cc(O)c3c(=O)cc(-c4ccccc4Cl)oc23)[C@H](O)C1
Given back: 0

Asked: Indicate its recorded inhibition; the molecule in question is N#C/C(=C(/N)Sc1ccc(N)cc1)c1ccccc1C(F)(F)F
Given back: 0

Asked: Quote inhibition reported for N#C/C(=C\c1ccc(O)c(O)c1)C(N)=S please.
Given back: 0

* * *

systemUnderTest: PDPK1 (human)
procedureDetails: split-luciferase competition binding
conditionContext: compound 10.0 µM
valueKind: inhibition (%)
Reply numerically in %, unit not repeated.

Here's what some known entries look like.
| molecule | systemUnderTest | valueKind | dataValue |
| --- | --- | --- | --- |
| COc1ccc(Cl)cc1NC(=O)Nc1cc(C)nc2ccccc12 | PDPK1 (human) | inhibition | 0 |
| CC(C)[C@H](CO)Nc1nc(Nc2cc(N)cc(Cl)c2)c2ncn(C(C)C)c2n1 | PDPK1 (human) | inhibition | 0 |
| O=C1c2ccccc2-c2n[nH]c3cccc1c23 | PDPK1 (human) | inhibition | 0 |
| O=C(NC(NC(=S)Nc1ccc(F)c([N+](=O)[O-])c1)C(Cl)(Cl)Cl)C(c1ccccc1)c1ccccc1 (configuration not stated) | PDPK1 (human) | inhibition | 0 |

Asked: Give the measured inhibition for O=C1NC(=O)C(c2ccccc2[N+](=O)[O-])=C1Nc1ccc(O)c(Cl)c1
Given back: 0

Asked: Entry CS(=O)c1ccc(-c2nc(-c3ccc(F)cc3)c(-c3ccncc3)[nH]2)cc1 (configuration not stated) needs its inhibition filled in; supply it.
Given back: 3

Asked: Input O=S(=O)(c1cccc2c(Cl)cccc12)N1CCCNCC1 , output reported inhibition.
Given back: 0

Asked: Annotate the molecule O=C(c1ccc(Nc2nccc(-c3cc4ccccc4s3)n2)cc1)N1CCC(N2CCCC2)CC1 with its measured inhibition.
Given back: 9

* * *

systemUnderTest: RPS6KA2 KD1 (human) (UniProt Q15349)
Sequence (Q15349 whole entry, looked up): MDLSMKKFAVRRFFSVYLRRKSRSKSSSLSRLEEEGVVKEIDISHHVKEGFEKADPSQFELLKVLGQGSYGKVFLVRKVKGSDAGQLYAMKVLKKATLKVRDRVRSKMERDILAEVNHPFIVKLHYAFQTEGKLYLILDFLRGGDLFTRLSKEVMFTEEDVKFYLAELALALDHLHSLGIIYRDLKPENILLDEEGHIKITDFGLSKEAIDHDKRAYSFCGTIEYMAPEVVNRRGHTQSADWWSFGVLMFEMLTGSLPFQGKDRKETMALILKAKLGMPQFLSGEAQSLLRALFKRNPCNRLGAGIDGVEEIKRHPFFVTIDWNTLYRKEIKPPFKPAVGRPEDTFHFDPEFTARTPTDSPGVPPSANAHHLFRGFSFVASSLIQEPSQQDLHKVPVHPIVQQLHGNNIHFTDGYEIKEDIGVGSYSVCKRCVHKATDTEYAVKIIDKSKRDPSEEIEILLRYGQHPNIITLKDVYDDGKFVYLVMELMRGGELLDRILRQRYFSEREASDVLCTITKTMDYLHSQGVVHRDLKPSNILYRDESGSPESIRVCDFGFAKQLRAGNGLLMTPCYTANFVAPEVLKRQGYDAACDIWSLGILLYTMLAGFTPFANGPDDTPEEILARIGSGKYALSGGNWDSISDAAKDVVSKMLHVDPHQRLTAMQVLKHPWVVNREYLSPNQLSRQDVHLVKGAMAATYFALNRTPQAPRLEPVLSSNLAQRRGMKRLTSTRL
procedureDetails: split-luciferase competition binding
conditionContext: compound 10.0 µM
Would you mind labelling by inhibition? At or over 10% is rule met, under is rule not met.

Solved cases (3 shown):
| smiles | systemUnderTest | group |
| --- | --- | --- |
| CCN(CC)CCNC(=O)c1c(C)[nH]c(/C=C2\C(=O)Nc3ccc(F)cc32)c1C | RPS6KA2 KD1 (human) (UniProt Q15349) | rule met |
| CC(C)[C@H](CO)Nc1nc(Nc2cc(N)cc(Cl)c2)c2ncn(C(C)C)c2n1 | RPS6KA2 KD1 (human) (UniProt Q15349) | rule met |
| O=S(=O)(c1cccc2c(Cl)cccc12)N1CCCNCC1 | RPS6KA2 KD1 (human) (UniProt Q15349) | rule not met |

Asked: Record O=S(=O)(NCCNC/C=C/c1ccc(Br)cc1)c1cccc2cnccc12 ; criterion: inhibition no lower than 10%. Met?
Given back: rule not met

Asked: Decide: is the reported value of inhibition for O=C1Nc2ccc(I)cc2/C1=C/c1cc(Br)c(O)c(Br)c1 equal to or greater than 10%?
Given back: rule met

Asked: Given N#C/C(=C\c1ccc(O)c(O)c1)C(=O)NCc1ccccc1 , state whether its inhibition is at least 10%.
Given back: rule not met

Asked: Record c1ccc(-c2n[nH]cc2-c2ccnc3ccccc23)nc1 ; criterion: inhibition no lower than 10%. Met?
Given back: rule not met

Asked: Can Oc1ccc(-c2nc(-c3ccc(F)cc3)c(-c3ccncc3)[nH]2)cc1 be said to have inhibition at or above 10%?
Given back: rule not met

Asked: Could you please find out whether Cc1cc2nc3c(=O)[nH]c(=O)nc-3n(C)c2cc1C=O has inhibition that meets 10% or exceeds it?
Given back: rule not met

Asked: Is inhibition for O=C(Nc1cc(C(F)(F)F)cc(C(F)(F)F)c1)c1cc(Cl)ccc1O at or above 10%?
Given back: rule not met

Asked: Check this compound for inhibition at or above 10%: NC(=O)Nc1sc(-c2ccc(F)cc2)cc1C(N)=O
Given back: rule met

Asked: Decide: inhibition of CC(C)[C@H](CO)Nc1nc(Nc2cccc(Cl)c2)c2ncn(C(C)C)c2n1 >= 10%?
Given back: rule met

Asked: Please indicate if the recorded inhibition for Cc1ccc(NC(=O)c2cccc(N(C)C)c2)cc1NC(=O)c1ccc(O)cc1 meets or exceeds 10%.
Given back: rule not met

Asked: Threshold query (inhibition >= 10%) on NC(=O)c1ccc(-c2nc(-c3ccccn3)c(-c3ccc4c(c3)OCCO4)[nH]2)cc1
Given back: rule not met

Asked: Test whether the compound CC[C@@H](CO)Nc1nc(NCc2ccccc2)c2ncn(C(C)C)c2n1 records inhibition of 10% or higher.
Given back: rule not met

Asked: Quick check: does CC(C)[C@H](CO)Nc1nc(Nc2ccc(C(=O)O)c(Cl)c2)c2ncn(C(C)C)c2n1 have inhibition greater than or equal to 10%?
Given back: rule met

Asked: Record COc1cc2nccc(Oc3ccc(NC(=O)Nc4ccc(F)cc4F)c(F)c3)c2cc1OC ; criterion: inhibition no lower than 10%. Met?
Given back: rule met

Asked: Assess whether reported inhibition for CO[C@@H]1[C@H](N(C)C(=O)c2ccccc2)C[C@H]2O[C@]1(C)n1c3ccccc3c3c4c(c5c6ccccc6n2c5c31)C(=O)NC4 sits at 10% or higher.
Given back: rule met

Asked: Does inhibition meet or surpass 10% for CC(=O)c1c(O)c(C)c(O)c(Cc2c(O)c3c(c(C(=O)/C=C/c4ccccc4)c2O)OC(C)(C)C=C3)c1O ?
Given back: rule not met

Asked: Given Cc1ccccc1C(=O)c1ccc(Nc2ccc(Br)cc2N)cc1Cl , state whether its inhibition is at least 10%.
Given back: rule not met

* * *

systemUnderTest: UniProt O14965
Sequence (O14965 whole entry, looked up): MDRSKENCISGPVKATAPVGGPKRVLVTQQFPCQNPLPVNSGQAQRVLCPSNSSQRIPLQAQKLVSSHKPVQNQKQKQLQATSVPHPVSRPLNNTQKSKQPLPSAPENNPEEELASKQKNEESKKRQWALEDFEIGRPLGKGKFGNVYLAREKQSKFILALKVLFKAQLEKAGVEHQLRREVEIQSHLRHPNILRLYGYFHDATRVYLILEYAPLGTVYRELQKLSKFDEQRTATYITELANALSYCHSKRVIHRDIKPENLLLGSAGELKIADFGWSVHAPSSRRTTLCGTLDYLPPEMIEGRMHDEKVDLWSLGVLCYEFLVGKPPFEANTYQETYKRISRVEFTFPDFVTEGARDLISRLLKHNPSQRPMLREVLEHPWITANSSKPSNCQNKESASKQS
procedureDetails: split-luciferase competition binding
conditionContext: compound 10.0 µM
valueKind: inhibition (%)
Answer with a number only, understood to be in %.

Reference set (5 entries):
| compound | valueKind | dataValue |
| --- | --- | --- |
| COc1cc2ncnc(Nc3ccc(Cl)cc3F)c2cc1OC | inhibition | 7 |
| O=C1NC(=O)c2cc(Nc3ccc(F)cc3)c(Nc3ccc(F)cc3)cc21 | inhibition | 0 |
| CS(=O)c1ccc(-c2nc(-c3ccc(F)cc3)c(-c3ccncc3)[nH]2)cc1 (stereo not given) | inhibition | 6 |
| Nc1ccc(-c2cccc3c(=O)cc(N4CCOCC4)oc23)cc1 | inhibition | 2 |
| CC[C@@H](CO)Nc1nc(NCc2ccccc2)c2ncn(C(C)C)c2n1 | inhibition | 0 |

Asked: Given the compound CO[C@@H]1[C@H](N(C)C(=O)c2ccccc2)C[C@H]2O[C@]1(C)n1c3ccccc3c3c4c(c5c6ccccc6n2c5c31)C(=O)NC4 , write its reported inhibition.
Given back: 26

Asked: Give the reported value of inhibition for this record: N#CC(=C(\N)Sc1ccccc1N)/C(C#N)=C(/N)Sc1ccccc1N
Given back: 0

Asked: Provide one value: measured inhibition of CCN(CC)CCCCN1c2ccccc2Oc2ccc(Cl)cc21
Given back: 0

Asked: Return value of inhibition for input Fc1ccc(Cl)cc1-c1nc(Nc2ccncc2)c2nccnc2n1 , no commentary.
Given back: 0

Asked: Specify inhibition for Cc1ccc(NC(=O)c2cccc(N(C)C)c2)cc1NC(=O)c1ccc(O)cc1 and stop.
Given back: 3

The measurements presented in this section are drawn from the kinase profiling compilation of Christmann-Franck et al. (2016).
